The measurements presented in this section are drawn from patent US20240262926A1.

# tested on: T1, recombinant human TfR (r human TfR: Sino Biological Inc.) (human, UniProt P02786 89-760)
# T1 construct: Bought product; also called r human TfR-ECD (Histag); hTfR; not shown: histidine tag attached to the N-terminus
# T1 sequence (P02786 89-760): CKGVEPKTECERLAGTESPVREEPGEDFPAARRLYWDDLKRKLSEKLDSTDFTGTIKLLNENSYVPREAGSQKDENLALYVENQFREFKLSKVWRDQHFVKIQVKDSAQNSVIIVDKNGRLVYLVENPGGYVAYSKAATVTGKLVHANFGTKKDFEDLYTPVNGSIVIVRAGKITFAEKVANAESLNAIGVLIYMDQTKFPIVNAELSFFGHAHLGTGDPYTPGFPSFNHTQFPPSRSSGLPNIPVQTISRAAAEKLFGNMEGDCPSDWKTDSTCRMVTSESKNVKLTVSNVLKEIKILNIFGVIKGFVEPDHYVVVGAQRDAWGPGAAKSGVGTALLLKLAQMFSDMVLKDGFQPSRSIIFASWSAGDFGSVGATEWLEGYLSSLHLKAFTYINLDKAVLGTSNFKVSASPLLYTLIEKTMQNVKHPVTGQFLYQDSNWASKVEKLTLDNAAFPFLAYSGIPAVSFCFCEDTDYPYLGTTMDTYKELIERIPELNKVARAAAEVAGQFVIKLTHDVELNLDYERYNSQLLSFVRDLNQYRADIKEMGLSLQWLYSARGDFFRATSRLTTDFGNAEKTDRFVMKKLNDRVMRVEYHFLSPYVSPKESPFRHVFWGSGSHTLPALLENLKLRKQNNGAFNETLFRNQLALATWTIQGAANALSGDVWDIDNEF
# assay name: BLI (Octet RED96), His-tagged TfR ECD loaded on Ni-NTA sensor, antibody as analyte
observation type: kon

[[record]]
binder = "anti-hTfR antibody No. 11 (antibody, V domains shown, Mouse hybridoma antibody purified on Protein G; also called mouse anti-hTfR antibody No. 11; product of Clone 11 line) VH: EVQLQESGAELVRPGSSVKISCKASGYAFSIYWINWLKQRPGQGLEWIGQIYPGNGDTNYNGKFKGKATLTADKSSNTVYMRLSSLTSEDSAVYFCGRWGDDYAMDFWGQGTSVTVSS VL: DIVLTQSPATLSVTPGDRVSLSCRASQSIRNYLHWYQQKSHESPRLLIKYASQSISGIPSRFSGSGSGTDFTLSINSVETEDFGMYFCQQTNSWPYTFGGGTKLEIK"
observation_type = "kon"
result = "272000 M⁻¹ s⁻¹"

[[record]]
binder = "anti-hTfR antibody No. 9 (antibody, V domains shown, Mouse hybridoma antibody purified on Protein G; also called mouse anti-hTfR antibody No. 9; product of Clone 9 line) VH: EVQLQESGPELKKPGETVKISCKASGYTFTNYGVSWVKQAPGKDLKWMGWIYTFTGEATYIDDFRGRFAFSLETSANTAYLQINNLKNEDTATYFCSRRNGAWFEDWGQGTLVTVSA VL: DIVLTQSPALMSASPGETVTMTCSASSSVSLMFWYQQKPRSSPKPWIYFTSYRASGVPIRFSGSGSGTSFSLTISNLEAEDAATYYCQQWTSDPPTFGSGTKLEIE"
observation_type = "kon"
result = "782000 M⁻¹ s⁻¹"

[[record]]
binder = "anti-hTfR antibody No. 4 (antibody, V domains shown, Mouse hybridoma antibody purified on Protein G; also called mouse anti-hTfR antibody No. 4; product of Clone 4 line) VH: EVQLQESGAELVRPGTSVRVFCKASGYAFTNYLIEWVKQRPGQGLEWIGLINPGSGGIIYNEKFTDRATLTADKSSSTAYMQLSSLTSDDSAVYFCARSNYYGTTYWHFDVWGAGTTVTVSS VL: DIVLTQTPAIMSASPGEKVTMTCSASSNVNYMHWYQQKSSTSPKLWIYDTSKLASGVPGRFSGSGSGNSYSLTISSMEAEDVATYYCFQGNGNPYTFGGGTKLEIK"
observation_type = "kon"
result = "1.91e+06 M⁻¹ s⁻¹"

[[record]]
binder = "anti-hTfR antibody No. 3 (antibody, V domains shown, Mouse hybridoma antibody purified on Protein G; also called mouse anti-hTfR antibody No. 3; product of Clone 3 line) VH: EVQLQESGAELVRPGTSVKISCKASGYTFMNYWLGWVKQRPGHGLEWIGDIYPGGDYPTYSEKFKVKAILTADTSSSSVYLHLSSLTSEDSAVYFCARSGNYDEVAYWGQGTLVTVST VL: DIVMTQTTLSLPVSLGDQASISCRSSQSLVHSNGNTYLHWYLQKPGQSPKLLIYKVSNRFSGVPDRFSGSGSGTDFTLKISRVEAEDLGVFFCSQSTHVPWTFGGGTKLEIKR"
observation_type = "kon"
result = "653000 M⁻¹ s⁻¹"

[[record]]
binder = "anti-hTfR antibody No. 2 (antibody, V domains shown, Mouse hybridoma antibody purified on Protein G; also called mouse anti-hTfR antibody No. 2; product of Clone 2 line) VH: EVQLQESGAELVRPGVSVKISCKGSGYTFTDYVMHWVRQSHAKSLEWIGVISTYYGHGSYNQRFKGKATMTVDKSSSTAYLELVRLTSEDSAIYYCVRGGYGSSSLAGNFDVWGAGTTVTVSS VL: DIVLTQSPATLSVTPGDSVSLSCRASQSISNNLQWYQQKSHESPRLLIKYASQSISGIPSRFSGSGSGTDFTLSINSVETEDFGMYFCQQSNSWPRTFGAGTKLELKR"
observation_type = "kon"
result = "1.11e+06 M⁻¹ s⁻¹"

[[record]]
binder = "anti-hTfR antibody No. 1 (antibody, V domains shown, Mouse hybridoma antibody purified on Protein G; also called mouse anti-hTfR antibody No. 1; product of Clone 1 line) VH: EVQLQESGGGLVQPGGSLKLSCAASGLTFSNYGMSWIRQTPDKRLELVANINTNGGSTYYPDSVKGRFTISRDNAKNTLYLQMNSLKSEDTAIYYCTNNRYDEDYWGQGTSVTVSS VL: DIVLTQSSKFMSTSVGDRVSITCKASQDVNSAVAWFQQKPGQSPKLLIYWTSTRHTGVPDRFTGSGSGTVYTLTISSVQAEDLALYYCQQHYSTPRTFGGGTKLEIKR"
observation_type = "kon"
result = "500000 M⁻¹ s⁻¹"

[[record]]
binder = "anti-hTfR antibody No. 5 (antibody, V domains shown, Mouse hybridoma antibody purified on Protein G; also called mouse anti-hTfR antibody No. 5; product of Clone 5 line) VH: EVQLQESGPELVKPGASVKMSCKASGYTFTNFVIHWVKQRPGQGLEWIGFFNPHKNGAEYNEKFQVKATLTSDKSSTTAYMELNSLTSEDSAVYYCARSFYYYSMDYWGQGTSVTVSS VL: DIVMTQTPAIMSASPGEKVTMTCSASSSISSIHWYQQKPGTSPKRWIYDTSTLASGVPVRFSGSGSGTSYSLTISSMEAEDAATYYCHQRSSYPTFGGGTKLEIK"
observation_type = "kon"
result = "671000 M⁻¹ s⁻¹"

[[record]]
binder = "anti-hTfR antibody No. 6 (antibody, V domains shown, Mouse hybridoma antibody purified on Protein G; also called mouse anti-hTfR antibody No. 6; product of Clone 6 line) VH: EVQLQESGPGLVAPSQSLSITCSVSGFSLSTYGVYWVRQPPGKGLEWLGIIWGDGSTNYHSALISRLTISKDNSKSQVFLKLNSLQTADTATYYCAKPDDVWGAGTTVTVSS VL: DIVLTQTPSSLSASLGERVSLTCRASQEISGYLSWLQQKPDGTIKRLIYAASTLDSGVPKRFSGSRSGSDYSLTISSLESEDFADYYCLQYSSYPRTFGGGTKLEIK"
observation_type = "kon"
result = "754000 M⁻¹ s⁻¹"

[[record]]
binder = "anti-hTfR antibody No. 13 (antibody, V domains shown, Mouse hybridoma antibody purified on Protein G; also called mouse anti-hTfR antibody No. 13; product of Clone 13 line) VH: EVQLQESGAELVRPGSSVKISCKASGYAFSIYWINWLKQRPGQGLEWIGQIYPGNGDTNYNGKFKGKATLTADKSSNTVYMRLSSLTSEDSAVYFCGRWGDDYAMDFWGQGTSVTVSS VL: DIVITQTPATLSVTPGDRVSLSCRASQSIRNYLHWYQQKSHESPRLLIKYASQSISGIPSRFSGSGSGTDFTLTINSVETEDFGMYFCQQTNSWPYTFGGGTKLEIK"
observation_type = "kon"
result = "835000 M⁻¹ s⁻¹"

[[record]]
binder = "anti-hTfR antibody No. 7 (antibody, V domains shown, Mouse hybridoma antibody purified on Protein G; also called mouse anti-hTfR antibody No. 7; product of Clone 7 line) VH: EVQLQESGGALVKPGGSLKVSCEASGITFRNYFMSWVRQTPEKRLEWVATISSAGGYTYYADSVKGRFTISRDNAGNTLYLQMSSLRSEDTAMYFCARQEVPYPYAMDYWGQGTSVIVSS VL: DIVLTQSPVIMSASLGEEITLTCSASSSVNYIHWYQQKSGTSPKVLIYQTSNLASGVPSRFSGSRSGTFYSLKISSVEAEDAADYYCHQWSSYPWTFGGGTKLEIK"
observation_type = "kon"
result = "369000 M⁻¹ s⁻¹"

